- testedOn: T1, human adenosine A2A receptor (A2aR) (human, UniProt P29274 1-412)
- T1 construct: Assays used HEK293 cells stably overexpressing human A2aR (BPS Bioscience 79381), human A2aR-expressing CHO cells, or endogenous A2aR on human PBMC; also called human A2aR; hA2aR
- assayDetails: flow cytometry, HEK293-hA2aR cells, supernatant 1 ug/ml
quantityMeasured: MFI (MFI)

Hu1B5-H3/Hu1B5-L3 (antibody, human IgG1, V domains shown, Human IgG1 FES (L234F, L235E, P331S) and human Ig kappa constant domains) VH: EVQLVQSGAEVKKPGASVKVSCKTSGFTFTRFWMNWVRQAPGQGLEWIGRIDPYDSETQYNHKFWDRATLTVDTSSSTVYMELSSLRSEDTAVYYCGRSLYGKGDYWGQGTTVTVSS VL: DVVMTQSPLSLPVTLGQPASISCRSSQSIVHSNGNTYLEWYQQRPGQSPRLLIYKVSNRFSGVPDRFSGSGSGTDFTLKISRVEAEDVGVYYCFQGSHVPLTFGGGTKVEIK ... 1850
Hu1B5-H6/Hu1B5-L3 (antibody, human IgG1, V domains shown, Human IgG1 FES (L234F, L235E, P331S) and human Ig kappa constant domains) VH: EVQLVQSGAEVKKPGESLRISCKTSGFTFTRFWMNWVRQMPGKGLEWIGRIDPYDSETQYNHKFWDHATLSVDKSSSTVYLQWSSLKASDTAMYYCGRSLYGKGDYWGQGTTVTVSS VL: DVVMTQSPLSLPVTLGQPASISCRSSQSIVHSNGNTYLEWYQQRPGQSPRLLIYKVSNRFSGVPDRFSGSGSGTDFTLKISRVEAEDVGVYYCFQGSHVPLTFGGGTKVEIK ... 1910
Hu1B5-H6/Hu1B5-L5 (antibody, human IgG1, V domains shown, Human IgG1 FES (L234F, L235E, P331S) and human Ig kappa constant domains) VH: EVQLVQSGAEVKKPGESLRISCKTSGFTFTRFWMNWVRQMPGKGLEWIGRIDPYDSETQYNHKFWDHATLSVDKSSSTVYLQWSSLKASDTAMYYCGRSLYGKGDYWGQGTTVTVSS VL: DIVMTQSPDSLAVSLGERATINCRSSQSIVHSNGNTYLEWYQQKPGQPPKLLIYKVSNRFSGVPDRFSGSGSGTDFTLTISSLQAEDVAVYYCFQGSHVPLTFGGGTKVEIK ... 702
